Experiment: soluble on expression in E. coli; label from the status in PepcDB or PDB records
propertyMeasured: soluble on expression in E. coli

{"residueSequence": "MVASYEIEFIGEGEVAGILREALRTDSRVESFEEFERGFKLRLVGAKRRITIVCKGSVQSDDCLLIVNARKMPENGGIALNADKIAERCGSKPEIAMLGAIAKLGVVDLKRLMSVIYREMGYGDVLAVKKGFEATNI", "propertyMeasured": "soluble on expression in E. coli", "assayValue": "not soluble"}
{"residueSequence": "MKKKDTCEIFGYDEEKVNRIQGDLQTVDISGVSQILKAIADENRAKITYALCQDEELCVCDIANILGVTIANASHHLRTLYKQGVVNFRKEGKLALYSLGGEAIRQIMMIALAHKKEVKVNV", "propertyMeasured": "soluble on expression in E. coli", "assayValue": "soluble"}
{"residueSequence": "MYEVTKFGGEGKRLEDYREIIGDEALEAIKAKAENLKDKSFVHVNSTSFGGGVAEILHNLVPLMRDVGIDARWFVIEGTNEFFNVTKSFHNALQGNKELRLTEEMKKLYLEINKKNAEDIDLTQFDYVLIHDPQPAPLIEFYEKRQPWIWRCHIDLSDPNLEFWKFLRQFVEKYDRYIFHMEEYVQEDLNQEKVVIMPPSIDPLSEKNMELEHHHHHH", "propertyMeasured": "soluble on expression in E. coli", "assayValue": "not soluble"}
{"residueSequence": "GAMATGSRIGGGIDVPVPRHSVGVVIGRSGEMIKKIQNDAGVRIQFKQDDGTGPEKIAHIMGPPDRCEHAARIINDLLQSLRSGPPGPPGGPGMPPGGRGRGRGQG", "propertyMeasured": "soluble on expression in E. coli", "assayValue": "soluble"}
{"residueSequence": "MNVLFLSISLGSGHIRAAEALQKFVVQKYPKSKTLIVDTFKYINPLIHTVVVDGYLNIVKYVPEIYGGLYRMSEHIKNIDRMSRGFSNLLTPKIHRLIQSFKPSIIVCTHPFPLQMIAHLKKHYNLDVPSIAIVTDFVNHPFWFQNNIEAYIVAHDYIKRDMIECGISEDRIFTYGLPVAPEFLKSIPKEQARKELSLENTLTVLLMGGSLGIGDIENTFKSFAKCKRDIQIIAVAGKNTALKKRLDSLAASFPMPVKIFGYTDSIPMLMDASDFIVTKPGAMTISEALVKRLPALIISPIPGQEERNEQFLVNSGTAVRIYKNTKIDSVLCQVYDNKLRYKQMKEIAGNLANPDSGRNILSLIEKLVNDNEKGLFKYSFNAF", "propertyMeasured": "soluble on expression in E. coli", "assayValue": "soluble"}
{"residueSequence": "MSPLNFTHILTQTVDELSESESYKGLFHQHKDGEPLPSPRVLCDVIELARSILFPGYYGNSTVNSRTINYHIGVNVEKLFNLLTEQILAGLCFGNGDRCDECTEAKREEAARLAAKFISKLPHLRRVLATDVEAAYNGDPAAQSFGEVIFCYPAIKAISNYRIAHELLELGVPLIPRIITEMAHSETGIDIHPGARIGTHFTIDHGTGVVIGATSIIGNNVKLYQGVTLGARSFPLDADGKPIKGIPRHPILEDNVIVYSNATILGRITIGRDATVGGNIWVTENIPAGARIVQTKAKKLEHHHHHH", "propertyMeasured": "soluble on expression in E. coli", "assayValue": "soluble"}
{"residueSequence": "MSSPPPARSGFYRQEVTKTAWEVRAVYRDLQPVGSGAYGAVCSAVDGRTGAKVAIKKLYRPFQSELFAKRAYRELRLLKHMRHENVIGLLDVFTPDETLDDFTDFYLVMPFMGTDLGKLMKHEKLGEDRIQFLVYQMLKGLRYIHAAGIIHRDLKPGNLAVNEDCELKILDFGLARQADSEMTGYVVTRWYRAPEVILNWMRYTQTVDIWSVGCIMAEMITGKTLFKGSDHLDQLKEIMKVTGTPPAEFVQRLQSDEAKNYMKGLPELEKKDFASILTNASPLAVNLLEKMLVLDAEQRVTAGEALAHPYFESLHDTEDEPQVQKYDDSFDDVDRTLDEWKRVTYKEVLSFKPPRQLGARVSKETPL", "propertyMeasured": "soluble on expression in E. coli", "assayValue": "soluble"}
{"residueSequence": "GGLPIVGDIFRFLDNGRTGLYENYKEFSTELNMTRESNGVKVTINDVISDGRTLSITYSLESEQDLGDDPIILGGLDIMDAHGSSGSGKMTKVTEKKYVGMVTTTHHDSNKKDKVNFRWNIEGIEIPDRKKSIQGHWNFALTVKSMDSKERTIGGSSEKEGIKANMEKVAMSPVSFILYYNQEVSKGARKEWDSVDVELTVKDDLGNDYSGEGNGGSGNDPYNIRWSATFQKLNENATKLIVTPRVHLRVHTPENHGGVEYVNGKEKKIEVPNKEAKKKDIVLDDIVIDLKK", "propertyMeasured": "soluble on expression in E. coli", "assayValue": "soluble"}
{"residueSequence": "MGSDKIHHHHHHLNGHGYHVTGTKTTQDGVEAARMSGIECYQLVLTPELECDADELSALLQVDVLIVTLPASRTAEGGEGYAQAVQQLVNMARVFHVPRIIFTSSTSVYGDGSGTVRETSPLQPTTVAGKTLVSLEQWLQHLPDISVDILRLAGLVGGDRHPGRFLAGKTNLPRGNHGVNLVHQEDVLAAILLLLKLPNGGHIYNLCATEHPARQDFYPEQARRLHVSTPQFAPVTDSSQGRIVDGQRICHELGFDYQYPNPSTMPLNAGESR", "propertyMeasured": "soluble on expression in E. coli", "assayValue": "not soluble"}
{"residueSequence": "MGSDKIHHHHHHMAFSFDSRIRYSEVDSSCRLSLTGLTNYFQDCSVFHSQSHDVGIRFLADNHIAWVLSSWQICINRLPLLNEQVKISTWAYGMKAFYGYRNFTLEDAGGSTLAYANSVWVLVDTRTGRPVKVPQEFADTYGLEPQLEMECAKRKLHIPDDMEKKGEIVVPQFFIDSNHHMNNEKYVMLAQQLLPNDFEISELRVEYRKEAKLGDTVISYVKYTSKSVTVVLADTDKKPYSVVEFLSKPVPGK", "propertyMeasured": "soluble on expression in E. coli", "assayValue": "not soluble"}
{"residueSequence": "QWGSMRMPSDRISSGMAFSSVAQEAGFQNDDIILAVDGRPVDALASGFMRSVIQARQVEVLRQGRREIVHVPHDMMKRVLKANSGFMSIQVPFVIDSVMPQGTAYACQLKAGDSITAVNGKLMPDASDVIGAIRSHAGDTIALSIARAGEELTITLPVDTGGLIGVSLRPLDAIYTIDHIRYSLFEAIPAGIAQGMGTMRSYVSDMKYVFTKEGAGQIGGFGTLGSLFPASWNWPQFWAMTALLS", "propertyMeasured": "soluble on expression in E. coli", "assayValue": "not soluble"}
{"residueSequence": "MAHHHHHHMNVFDCTLCVATTISQFLVDEVMKQVSLYGGFRHVVRCHGNPQEDFMDVKQSGEPIVLLIANQAGREALKFLCDDYHLPKEQRRVLWIHSISSGLDSYKLNELVKELQDIPLTNARGCYSSILAEHVMYSMLYFYRQTWRSLASRAEHKWDPFLMVELRGRKVGIIGYGDIGRASAKLLSAFGMEVTGVKRSASTKEVDEYGVRLVHGDAERERVLRESDFVVNILPGTEETKRLFNKELFSMMKPSAVYINIGRGITQNEDDLACALRDGVIRGASVDVFEREPLPAESPLWDISDDKILLTYHNAVLSDDFCKKAIDCFMLLARDFGSDGFASNVIQIDKFYCG", "propertyMeasured": "soluble on expression in E. coli", "assayValue": "soluble"}

* * *

Test: soluble on expression in E. coli; label from the status in PepcDB or PDB records

{"residueSequence": "MGSDKIHHHHHHMKNFSLWCDFIENSFLDNEFLNLLSHGINGATSNPAIFKNAILNSPIYKDKILKLKEKKTKDIYEELAISDIQKAADKLAPLFYQKNDGFISIEIDPRLHDNTTLSLGEAKRLYSAIGKENIMIKIPATKASYEVMYELMKNGISVNATLIFSLEQSQKCFEALNAGLVEFRKNNIALKEQNTRTPQAVISIFVSRFDRLLNPKAKEQNRIGILNANLAYNNIYSKNEPNIRALFASTGVKGDDLPKDYYIKELLFENSVNTAPLDAIEAFKGKMHFKKPLMNFEIYTELNQIISQSEREKACNDLLSDGLEQFCIAFEDILKAL", "soluble on expression in E. coli": "not soluble"}
{"residueSequence": "MGSDKIHHHHHHMSNLKHTRHNSHNVRHHSTGNSMNYVSTGQGEAILLIHGLFGNLDNLKGLGQALEAHHQVIRVDVPNHGLSEHRQQMDYPSLAKAMVDLLDELELERVHIVGHSMGGKIAMATALAYPNRIISLVAADIAPVAYQPRHNAVFAALESLPLEGHTDRRFALAHLLAAGIDDATAQFLLKNLQRSGTGFRWKMNLTGLKSGYPNIIGWHNLPNEPQLVFAGPSLFIRGGDSNYVAAAHRDEILRQFPQAQAKTLEGCGHWLHAQKPTIFNRIVSEFIDKHTV", "soluble on expression in E. coli": "not soluble"}
{"residueSequence": "MTESNGNSEITTTEGNTGPVVESSLDPLAGRPEQSEDDIAKASDVEEYLRDVIDPELGINVVDLGLVYDIWMEGSIHAHVNMTLTSPACPLTDVIEDQAESAVVGNKVAETLTIHWVWMPPWGPHMITEDGREQLRALGFSV", "soluble on expression in E. coli": "not soluble"}
